# System: M14 melanoma
# assay_method_text: NCI-60 one-dose screen, 48 h (100 = growth as untreated, 0 = no growth, -100 = all killed)
# condition: 10 µM unless noted
About 83,000 compounds went through this panel and 20% of them were active in at least one assay; those are over-represented in the sample as a whole.
growth for assorted molecules

molecule_smiles: COc1cc(C(=O)c2cc(C(C)=O)c3ccc(C)cn23)cc(OC)c1OC
growth (%): 16.1

molecule_smiles: Cc1ccc(/C(N)=N/C(N)=N/c2nc3ccccc3s2)cc1
growth (%): 107

molecule_smiles: CC(C)(C)Nc1nc2c(OCCc3ccccc3)cccn2c1-c1ccc([N+](=O)[O-])cc1
growth (%): 60.5

molecule_smiles: Brc1cccc(-c2cc(-c3ccc4c(c3)OC=CO4)[nH]n2)c1
growth (%): 15.7

molecule_smiles: CN1CCN(Cc2ccc(NC(=O)c3cncc(C#Cc4cnc5ccc(NCCO)nn45)c3)cc2C(F)(F)F)CC1
growth (%): -70.9

molecule_smiles: Cc1c(C(=O)/C=C/c2ccc(Cl)cc2)nnn1-c1ccc2oc(=O)ccc2c1
growth (%): 95.6

molecule_smiles: COc1cc(NC(=O)Nc2cccc(-c3cc(=O)c4c(OC)c(OC)c(OC)cc4o3)c2)cc(OC)c1OC
growth (%): 55.3

molecule_smiles: O=c1[nH][nH]c(-c2ccc(F)cc2)c1-c1nc2ccccc2s1
growth (%): 89.1

molecule_smiles: COc1ccc(/C(=N\NC(N)=S)c2ccc(Cl)cc2)cc1OC
growth (%): -4.37

molecule_smiles: CN(C)S(=O)(=O)c1ccc(-c2nc(C(Cl)Cl)nc3cc(-c4ccccc4)nn23)cc1
growth (%): 74

molecule_smiles: NC(=O)c1c(NC(=O)c2ccc(C(F)(F)F)cc2)sc2c1CCC(=O)C2
growth (%): -22

molecule_smiles: C#C[C@]1(O)CC[C@H]2[C@@H]3CC=C4c5sc(Nc6cccc(F)c6)nc5CC[C@]4(C)[C@H]3CC[C@@]21C
growth (%): 11

molecule_smiles: CN1CCN(c2ccc(Nc3nc(NCCCNS(=O)(=O)c4ccc(F)cc4)c4sccc4n3)cc2)CC1
growth (%): -21.3

molecule_smiles: Cn1cc(-c2cc3ncnc(Nc4ccc(NC(=O)Nc5cc(C(C)(C)C)on5)cc4)c3s2)cn1
growth (%): 11.6

molecule_smiles: COC(=O)c1cccc(NC2=CC(=O)C(C)=C(C)C2=O)c1
growth (%): 108

molecule_smiles: O=c1oc2ccc(-c3ccc(F)cc3F)cc2c(=O)n1-c1ccc(Br)cc1F
growth (%): 80.7

molecule_smiles: COc1ccc2[nH]cc(/C=N/Nc3ccnc4cc(Cl)ccc34)c2c1
growth (%): -79.7

molecule_smiles: O=C(/C=C/c1cccc(Br)c1)c1cccc(OCCCCOc2cccc(C(=O)/C=C/c3cccc(Br)c3)c2)c1
growth (%): 93.9

molecule_smiles: O=C(COc1ccc(/C=C2\C(=O)Nc3cc(Cl)ccc32)cc1)Nc1ccc(Cl)cc1
growth (%): 22.1

molecule_smiles: CCC(=C(c1ccc(OCCN2CCCCCC2)cc1)c1ccc(OCCN2CCCCCC2)cc1)c1ccc(Cl)cc1
growth (%): -74.4

molecule_smiles: NC(=S)n1c(=O)n(-c2cccc(C(F)(F)F)c2)c(=O)c2cc(-c3ccc(F)cc3F)ccc21
growth (%): 14.5

molecule_smiles: Cn1cc(C2=C(c3coc4cc(Br)ccc34)C(=O)NC2=O)c2ccccc21
growth (%): 68.7

molecule_smiles: CN1CCN(Cc2ccc(NC(=O)c3cncc(C#Cc4cnc5ccc(OC6CCOCC6)nn45)c3)cc2C(F)(F)F)CC1
growth (%): -91.2

molecule_smiles: O=C(/C=C/c1ccc(F)cc1)Nc1cccc2cccnc12
growth (%): 98.5
